System: NCI-H322M lung
PROTOCOL SUMMARY: NCI-60 one-dose screen, 48 h
SETUP CONDITIONS: 10 µM unless noted
About 83,000 compounds went through this panel and 20% of them were active in at least one assay; those are over-represented in the sample as a whole. Activity calls are given as the source filed them. How the source made its calls: active means growth percent below 10; inactive means the rest.
Bench note: report the call from active, inactive

Please review the entries below; each comes with its answer.
- COMPOUND: "COc1cc(/C(C#N)=C/c2nc3c(N4CCOCC4)nc(Cl)nc3n2C)cc(OC)c1OC"
  LABEL: "inactive"
- COMPOUND: "COc1ccc(/C=C2\\N=C(c3ccccc3)N(c3ccc(-c4nc5ccc(C)cc5s4)cc3)C2=O)cc1"
  LABEL: "inactive"
- COMPOUND: "Oc1c(C(Nc2ccccn2)c2cccc(Oc3ccccc3)c2)ccc2cccnc12 (centres undefined)"
  LABEL: "active"
- COMPOUND: "O=C(NCc1ccccc1)C1CN(c2ccc(Cl)cc2)N(c2ccc(Cl)cc2)C1=O (centres undefined)"
  LABEL: "inactive"
- COMPOUND: "COc1ccc2occ(C3=C(c4c[nH]c5ccccc45)C(=O)NC3=O)c2c1"
  LABEL: "inactive"

For this compound, state the assay outcome: O=C(/C=C/c1ccc(C(F)(F)F)cc1)c1ccc(Nc2nc(NCCO)nc(N3CCOCC3)n2)cc1 inactive

Assay result, entry O=C(/C=C/c1ccccc1)c1ccc(Nc2nc(NCCO)nc(Nc3ccc(Cl)cc3)n2)cc1 — outcome? inactive

Query: recorded result category for COCCN(C(=O)Cc1cccs1)C(C(=O)NCc1ccc(OC)cc1)c1ccc(C(C)C)cc1 (centres undefined) in this test inactive

---

Tested on: A549/ATCC NSCLC
PROTOCOL SUMMARY: NCI-60 one-dose screen, 48 h (100 = growth as untreated, 0 = no growth, -100 = all killed)
SETUP CONDITIONS: 10 µM unless noted
Compounds without any hit were thinned out: in the full panel of roughly 83,000, 20% have a hit.
OBSERVATION TYPE: growth (%)
Answers are plain numbers, in %.

Answered examples (2):
- COMPOUND: "CCOC(=O)c1cc2c(n1Cc1cccc(OC)c1)-c1oncc1CCC2"
  REPORTED RESULT: 42.3
- COMPOUND: "COc1ccc(-n2c(C(O)c3ccccc3)nn(CN3CCOCC3)c2=S)cc1 (stereo not given)"
  REPORTED RESULT: 103

// batch mode: one growth value per listed entry
1. COc1cccc(C(=O)Cn2cc(/C=C(\C#N)S(=O)(=O)c3ccccc3)c3ccccc32)c1
2. CCN(CCO)CCNc1ccc(C)c2sc3cc(Cl)ccc3c(=O)c12
3. COC(=O)/C(CCC=C(C)C)=C1\[C@@H](OC(C)=O)C[C@@]2(C)[C@H]1C[C@@H](O)[C@H]1[C@@]3(C)CC[C@H](NCc4ccccc4)[C@@H](C)[C@@H]3CC[C@@]12C
4. Clc1ccc(-c2nnc(COc3ccc(C4=NNC(c5ccco5)C4)cc3)o2)cc1 (stereo not given)
5. O=Cc1cc2ccccc2nc1Nc1nccs1
6. CCOC(=O)C(CC(=O)O)=C(C(=O)OCC)C(=O)OCC

1: 93.1; 2: 24.6; 3: 59; 4: 45.6; 5: 96.9; 6: 101

---

Tested on: SK-MEL-5 melanoma
PROTOCOL SUMMARY: NCI-60 one-dose screen, 48 h (100 = growth as untreated, 0 = no growth, -100 = all killed)
SETUP CONDITIONS: 10 µM unless noted
About 83,000 compounds went through this panel and 20% of them were active in at least one assay; those are over-represented in the sample as a whole. Active and inactive are the calls of the source. The calls were made as follows: active = growth percent below 10; inactive = the rest.
For each entry below, report its growth value.

- MOLECULE: "COc1cccc2c1C=C1CCCCC3=Cc4c(OC)cccc4OC13O2"
  growth: "50.3% (inactive)"

Can you give me growth for all of these, one by one?
1. Cc1ccc(NCCNCC(O)CO)c2c(=O)c3ccccc3sc12 (stereo not given)
2. O=C1/C(=C/c2ccc(O)cc2)COc2ccc(O)cc21
3. CCN(CCO)CCNc1ccc(C)c2sc3cc(Cl)ccc3c(=O)c12
4. C1CCN(c2nc(N3CCCCC3)nc(N3CCOCC3)n2)CC1

1. -81% (active)
2. 102% (inactive)
3. -94.3% (active)
4. 101% (inactive)

---

System: NCI-H522 lung
PROTOCOL SUMMARY: NCI-60 one-dose screen, 48 h (100 = growth as untreated, 0 = no growth, -100 = all killed)
SETUP CONDITIONS: 10 µM unless noted
Experimental: Growth inhibition of the NCI-H522 human Non-Small Cell Lung tumor cell line is measured as a screen for anti-cancer activity. Cells are grown in 96 well plates and exposed to the test compound for 48 hours. Compounds are tested at a single concentration, which is 10^-5 M for most compounds. The reported endpoint is percent growth (GI% or GIPRCNT), where numbers from 0 - 100% represent growth inhibition, and numbers from -100% - 0 represent cell death. […]
About 83,000 compounds went through this panel and 20% of them were active in at least one assay; those are over-represented in the sample as a whole.
OBSERVATION TYPE: growth (%)
Give bare numbers, in %.

- MOLECULE: "CCCCCCc1cc2cc(-c3nc4ccccc4[nH]3)c(=Nc3ccccc3C)oc2cc1O"
  REPORTED RESULT: 14.3
- MOLECULE: "O=C(Nc1ccc(N2CCNCC2)cn1)c1[nH]ncc1Nc1ncnc2sccc12"
  REPORTED RESULT: -3.84
- MOLECULE: "Cc1[nH]c2ccccc2c(=O)c1CC=C(Cl)Cl"
  REPORTED RESULT: 65.7

Give me growth for each of these molecules, listed below.
1. O=C(CN1C=NC2C(N3CCOCC3)=NC=NC21)c1ccc(Br)cc1 (configuration not stated)
2. CC1=CCC(OC(=O)C(C)(C)CCC(O)(C(=O)OC2(C(C)C)CCC3(C)OC3C2)C(C)C)(C(C)C)CC1 (configuration not stated)
3. NC1C(N)C(N)C1N (configuration not stated)
4. CC(C)Cn1c2c(c(=S)[nH]c1=O)CCC2
5. O=C1c2cc(I)ccc2Oc2cc([N+](=O)[O-])ccc2N1c1ccc(Cl)cc1F

1. 87.2
2. -76.3
3. 91.5
4. 96.1
5. 65.7

Return reported growth values for all items listed beneath this line.
1. COc1ccc(CCN2CCC(CN(C)Cc3cnn(-c4ccccc4)c3)CC2)cc1
2. COc1ccc(C2C3=C(COC3=O)N(CCO)c3cc4c(cc32)OCCO4)cc1 (configuration not stated)
3. CCn1c(Cc2ccccc2Nc2c(Cl)cccc2Cl)nnc1SCC(=O)NN1C(=O)/C(=C/c2cccc(OC)c2OC)SC1=S
4. CCN1C(=O)N(CC)C2Nn3c(s/c(=C\c4ccccc4F)c3=O)=NC21 (configuration not stated)

[43.7, 58.2, 86.8, 27.5]

---

Tested on: RPMI-8226 leukemia
PROTOCOL SUMMARY: NCI-60 one-dose screen, 48 h
SETUP CONDITIONS: 10 µM unless noted
Method: Growth inhibition of the RPMI-8226 human tumor cell line is measured as a screen for anti-cancer activity. Cells are grown in 96 well plates and exposed to the test compound for 48 hours. Compounds are tested at a single concentration, which is 10^-5 M for most compounds. The reported endpoint is percent growth (GI% or GIPRCNT), where numbers from 0 - 100% represent growth inhibition, and numbers from -100% - 0 represent cell death. For example, a value of 40 represents 60% growth inhibition. […]
Compounds without any hit were thinned out: in the full panel of roughly 83,000, 20% have a hit. Calls of active or inactive are those of the source. How the source made its calls: active means growth percent below 10; inactive means the rest.
Reply using exactly one outcome from T for active, F for inactive

- COMPOUND STRUCTURE STRING: "O=C(COc1cc(O)c2c(=O)cc(-c3ccccc3)oc2c1)Nc1ccccc1C(F)(F)F"
  LABEL: "F"

So what was the verdict on COc1cc(/C=C2\CN(C)C/C(=C\c3cc(CN4CCCCC4)c(O)c(OC)c3)C2=O)cc(CN2CCCCC2)c1O in this test? F

Hi, do you know how O=c1cc(NC2CCN(CCCc3ccccc3)CC2)c2cc(Cl)ccc2o1 came out in this test? T

---

Tested on: HT29 colon
PROTOCOL SUMMARY: NCI-60 one-dose screen, 48 h (100 = growth as untreated, 0 = no growth, -100 = all killed)
SETUP CONDITIONS: 10 µM unless noted
Protocol: Growth inhibition of the HT29 human tumor cell line is measured as a screen for anti-cancer activity. Cells are grown in 96 well plates and exposed to the test compound for 48 hours. Compounds are tested at a single concentration, which is 10^-5 M for most compounds. The reported endpoint is percent growth (GI% or GIPRCNT), where numbers from 0 - 100% represent growth inhibition, and numbers from -100% - 0 represent cell death. For example, a value of 40 represents 60% growth inhibition. […]
Compounds without any hit were thinned out: in the full panel of roughly 83,000, 20% have a hit.
Please mark 1 (yes) if the recorded growth is equal to or greater than 20%, and 0 (no) if it falls below.

For orientation, consider the following solved cases.
- MOLECULE: "COc1cccc2cc(N(C)c3nc(C)nc4ccsc34)ccc12"
  LABEL: "0 (no)"
- MOLECULE: "COc1cc(/C=C2\\CCC/C(=C\\c3cc(CN4CCOCC4)c(O)c(OC)c3)C2=O)cc(CN2CCOCC2)c1O"
  LABEL: "0 (no)"
- MOLECULE: "S=C1CCCC(=S)N1"
  LABEL: "1 (yes)"

Could you verify whether the entry COc1ccc(OC)c(/C=C/C(=O)c2c(C)nc3ccccc3c2/C=C/c2ccccc2)c1 shows growth of no less than 20%? 1 (yes)

Evaluate O=[N+]([O-])c1cc2c(ccc3occc32)o1 : growth at minimum 20%? 0 (no)

Determine whether this molecule has growth no lower than 20%: O=C(/C=C/c1ccc(F)cc1)c1ccc(Nc2nc(NCCO)nc(Nc3ccc(Cl)cc3)n2)cc1 1 (yes)

Entry COC(=O)C1=C(C)NC(C)=C(C(=O)OC)C(N2C(=O)CCC2=O)C1 (configuration not stated) : is its growth no less than 20%? 1 (yes)
